# MEASURED TARGET: S. pyogenes SKKanGAS, kanamycin survival, BacTiterGlo, 6 h
# ASSAY COMMENT: S. pyogenes SKKanGAS kanamycin growth inhibitors – SKKanGAS strain, luminescence, dose confirmation, streptokinase promoter inhibitor project, dose response (AID 1902);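 further: lower survival reflects blocked streptokinase promoter driving kanamycin resistance gene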

MOLECULE: COc1ccc(C)cc1N=Nc1ccc(O)c2ncccc12
MEASURED TARGET: S. pyogenes SKKanGAS, kanamycin survival, BacTiterGlo, 6 h
EC50: 168 nM
--
MOLECULE: CN(C)[C@@H]1C(=O)C(C(N)=O)=C(O)[C@@]2(O)C(=O)C3=C(O)c4c(O)cccc4[C@@](C)(O)C3[C@H](O)C12 (stereo not given in full)
MEASURED TARGET: S. pyogenes SKKanGAS, kanamycin survival, BacTiterGlo, 6 h
EC50: 95 nM
--
MOLECULE: Cc1csc2nc(CSc3nc4ccccc4o3)c(Br)n12
MEASURED TARGET: S. pyogenes SKKanGAS, kanamycin survival, BacTiterGlo, 6 h
EC50: 6420 nM
--
MOLECULE: COc1cccc(-c2nn(C)c3sc(C(=O)Nc4ccc5c(c4)OCCO5)cc23)c1
MEASURED TARGET: S. pyogenes SKKanGAS, kanamycin survival, BacTiterGlo, 6 h
EC50: 3650 nM
--
MOLECULE: CC1(C)N=C(N)N=C(N)N1c1ccc(Oc2ccc(Cl)cc2)c(Cl)c1
MEASURED TARGET: S. pyogenes SKKanGAS, kanamycin survival, BacTiterGlo, 6 h
EC50: < 60 nM

###

# MEASURED TARGET: S. pyogenes SKKanGAS, kanamycin survival, BacTiterGlo, 6 h
# ASSAY COMMENT: S. pyogenes SKKanGAS kanamycin growth inhibitors – SKKanGAS strain, luminescence, dose confirmation, streptokinase promoter inhibitor project, dose response (AID 1902);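 further: lower survival reflects blocked streptokinase promoter driving kanamycin resistance gene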
EC50 values for the molecules below.
MEASURED ENDPOINT: EC50

MOLECULE: N#Cc1c(-c2ccccc2)nc(SCc2ccc(Cl)cc2)[nH]c1=O
RESULT: 6.47 µM
--
MOLECULE: CCOc1ccc(NC(=O)c2ccc3c(=O)n(-c4ccc(OC)cc4OC)c(=S)[nH]c3c2)cc1
RESULT: 7.86 µM
--
MOLECULE: Oc1c(Cl)cc(Cl)cc1C(C#Cc1ccccc1)N1CCOCC1 (stereo not given)
RESULT: 12.2 µM
--
MOLECULE: Cn1cccc1C(=O)Nc1nc(-c2ccccn2)cs1
RESULT: 12.4 µM
--
MOLECULE: COc1cc(C(=O)NNC(=S)NC(=O)c2ccc(F)cc2)cc(OC)c1OC
RESULT: 0.989 µM
--
MOLECULE: Cc1cc(Br)cc(/C=N/NC(=O)c2ccc3c(c2)OCO3)c1O
RESULT: 1.9 µM
--
MOLECULE: O=c1cc(-c2ccccc2)[nH]n1-c1nc2ccccc2s1
RESULT: 2.72 µM
--
MOLECULE: CCCCCn1c(N)c(-c2nc3ccccc3s2)c2c([N+](=O)[O-])nn(CC)c(=O)c21
RESULT: 8.16 µM
--
MOLECULE: Cn1c(=O)c(C(=O)NNC(=O)c2ccccc2F)c(O)c2ccccc21
RESULT: 4.25 µM
--
MOLECULE: Cc1ccc(C(=O)NC(=S)NNC(=O)c2cccc([N+](=O)[O-])c2)cc1
RESULT: 1.69 µM

###

# MEASURED TARGET: S. pyogenes SKKanGAS, kanamycin survival, BacTiterGlo, 6 h
# ASSAY COMMENT: S. pyogenes SKKanGAS kanamycin growth inhibitors – SKKanGAS strain, luminescence, dose confirmation, streptokinase promoter inhibitor project, dose response (AID 1902);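 further: lower survival reflects blocked streptokinase promoter driving kanamycin resistance gene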
Active and inactive are the calls of the source.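 How the source made its calls: active means EC50 no more than a set limit of log units above the highest dose; inactive means the rest.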
EC50 values for the compounds below.

COMPOUND: CC(C)c1c(C(=O)N/N=C/c2cccc(OCc3ccc(F)cc3)c2)nnn1-c1nonc1N
EC50: 5.19 µM
//
COMPOUND: CC(C)=CCOc1ccc([C@@H]2COc3c(ccc4c3C=CC(C)(C)O4)C2)c(O)c1
EC50: 1.83 µM
//
COMPOUND: O=C(CN1CCCC1)Nc1ccc(NC(=O)Nc2ccccc2)cc1
EC50: > 15 µM (inactive)
//
COMPOUND: O=C(NNC1=C(C(=O)C(F)(F)F)CCC1)c1cccc(Cl)c1
EC50: 0.931 µM
//
COMPOUND: Cc1onc(-c2ccccc2)c1C(=O)NNC(=S)NC(=O)/C=C/c1cccs1
EC50: 0.839 µM
//
COMPOUND: COc1ccc(CCNC(=O)CSc2nncn2N)cc1OC
EC50: > 15 µM (inactive)
//
COMPOUND: Cn1c(SCC(=O)Nc2cccc3ccccc23)nc(O)cc1=O
EC50: > 15 µM (inactive)
//
COMPOUND: CC12CCC(c3c(C(=O)Nc4nccs4)nn(-c4ccccc4)c31)C2(C)C (stereo unspecified)
EC50: 3.4 µM
//
COMPOUND: CCN1/C(=C/C=C/c2oc3ccc(-c4ccccc4)cc3[n+]2CC)Oc2ccc(-c3ccccc3)cc21
EC50: 2.07 µM
//
COMPOUND: CCC[C@@H]1C[C@@]1(CCC)[C@@H](NP(=O)(c1ccccc1)c1ccccc1)c1ccc(C(=O)OC)cc1
EC50: 2.14 µM
//
COMPOUND: CC(=O)Nc1ccc(C2C(=O)c3ccccc3C2=O)cc1
EC50: > 15 µM (inactive)
//
COMPOUND: Cc1cc(C)c(S(=O)(=O)/N=C2\C=C(Nc3ccc(C(=O)O)cc3)C(=O)c3ccccc32)c(C)c1
EC50: 1.16 µM
//
COMPOUND: COc1ccc(Cc2[nH]n3c(=O)cc(C(C)C)nc3c2-c2ccccc2)cc1
EC50: 2.33 µM
//
COMPOUND: Cc1cccc(CC(Cc2nc3ccccc3[nH]2)c2nc3ccccc3[nH]2)c1 (stereo unspecified)
EC50: 9.88 µM
//
COMPOUND: Nc1nonc1-c1nc2ccccc2n1CC(=O)N/N=C\c1ccc(-c2ccc(Cl)cc2)o1
EC50: 1.07 µM
//
COMPOUND: c1ccc2c(c1)ncn2CCCOc1ccc2c(c1)CCC2
EC50: 7.49 µM
//
COMPOUND: Cn1c(=O)c(NCCc2ccccc2)c2c3c(cccc31)C(=O)c1ccccc1-2
EC50: 8.86 µM
//
COMPOUND: COc1cc(NC(=O)CSc2ncnc3sc4c(c23)CCCC4)c(C(=O)O)cc1OC
EC50: 12 µM
//
COMPOUND: COc1ccc(NC(=O)CSc2ccc3nnc(-c4ccccn4)n3n2)c(OC)c1
EC50: > 15 µM (inactive)
//
COMPOUND: O=C(Nc1cccc(Cl)c1)Nc1cc(S(=O)(=O)N2CCCCC2)ccc1Cl
EC50: 7.75 µM
//
COMPOUND: O=C(NC(NC(=S)Nc1ccccc1Cl)C(Cl)(Cl)Cl)c1cccc(Cl)c1 (stereo unspecified)
EC50: 1.59 µM
//
COMPOUND: COc1ccc(CNC(=O)Cc2csc(NC(=O)Nc3ccccc3OC)n2)cc1
EC50: 15 µM
//
COMPOUND: CCOC(=O)c1ccc(NC(=O)CC2S/C(=N/N=C/c3c[nH]c4ccccc34)NC2=O)cc1 (stereo unspecified)
EC50: 7.73 µM
//
COMPOUND: CO[C@@]1(NC(=O)Cc2cccs2)C(=O)N2C(C(=O)O)=C(COC(N)=O)CS[C@@H]21
EC50: 3.33 µM
//
COMPOUND: O=C(Nc1ncc(Cc2ccccc2)s1)c1cccs1
EC50: 1.9 µM
//
COMPOUND: Cc1ccc(NS(=O)(=O)c2ccc(Cl)c(NC(=S)NC(=O)C3CCCCC3)c2)cc1Cl
EC50: 1.13 µM
//
COMPOUND: CCCCCCCCCCCCCCCC(O)C(N)CO (stereo unspecified)
EC50: 2.2 µM
//
COMPOUND: CCCCCCc1cc2cc(-c3nnc(-c4ccccc4)o3)c(=O)oc2cc1O
EC50: 3.05 µM
//
COMPOUND: CCN(CC)c1ccc(NC(=O)c2c(C)noc2C)cc1
EC50: > 15 µM (inactive)
//
COMPOUND: c1ccc(-c2cc(-c3ccncc3)nc3ccc4ccccc4c23)cc1
EC50: 2.21 µM
//
COMPOUND: Cc1cc(C)c(C2C3=C(Nc4c2c(C)nn4-c2ccccn2)c2ccccc2C3=O)c(C)c1 (stereo unspecified)
EC50: 1.45 µM
//
COMPOUND: CC(/C=C1\SC(=S)N(CCCC(=O)Nc2ccc(C(=O)O)cc2)C1=O)=C\c1ccccc1
EC50: 0.19 µM
//
COMPOUND: CCN(CC)c1nc(Nc2ccc([N+](=O)[O-])cc2)nc(N(CC)CC)n1
EC50: 3.15 µM
//
COMPOUND: C[C@@H](C[C@@H](O)[C@H](O)C(C)(C)O)[C@@H]1CC[C@]2(C)C3=CC[C@H]4C(C)(C)C(=O)CC[C@]4(C)[C@H]3CC[C@@]12C
EC50: 2.46 µM
//
COMPOUND: Cc1nc(-n2[nH]c3c(c2=O)CCCC3)[nH]c(=O)c1Cc1ccccc1
EC50: 1.39 µM
//
COMPOUND: CC(Oc1ccc(Cl)cc1)C(=O)NNC(=S)NC(=O)c1ccco1 (stereo unspecified)
EC50: 0.325 µM
//
COMPOUND: CSc1c(SCc2ccccc2)cnn(Cc2ccccc2)c1=O
EC50: 3.95 µM
//
COMPOUND: CCn1nc(C)cc1-c1nnc(Sc2ncc([N+](=O)[O-])s2)n1C
EC50: 6.51 µM
//
COMPOUND: Nc1[nH]n2c(=O)cc(-c3ccccc3)nc2c1N=Nc1ccc2c(c1)OCO2
EC50: 2.25 µM
//
COMPOUND: CCc1cccc2c(C(=O)COC(=O)c3ccc([N+](=O)[O-])s3)c[nH]c12
EC50: 0.735 µM
//
COMPOUND: Cc1nn(-c2ccccc2)c2sc(C(=O)N3CCc4ccccc4C3)cc12
EC50: 4.16 µM
